B1: glmS ribozyme (parent)
chain: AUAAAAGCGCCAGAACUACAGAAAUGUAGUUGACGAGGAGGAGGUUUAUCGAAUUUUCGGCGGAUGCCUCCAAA

Variants of: B1
Assay: self-cleavage kobs at 160 uM GlcN6P; higher = faster cleavage; RNA array
Details: with glucosamine-6-phosphate
Variants at the floor of the assay were thinned out.
Field: self-cleavage kobs at 160 uM GlcN6P. Provide a value for each of the variants that follow.
A number alone suffices; assume s⁻¹.

[in] Please report the measured self-cleavage kobs at 160 uM GlcN6P for G40C U47C
[out] 7.4e-05

[in] Please report the measured self-cleavage kobs at 160 uM GlcN6P for A14U U46C
[out] 6.29e-05

[in] Please report the measured self-cleavage kobs at 160 uM GlcN6P for A12C G41A
[out] 0.000107

[in] Please report the measured self-cleavage kobs at 160 uM GlcN6P for A64G C67U
[out] 0.000155

[in] Please report the measured self-cleavage kobs at 160 uM GlcN6P for A15C U55G
[out] 0.000255

[in] Please report the measured self-cleavage kobs at 160 uM GlcN6P for A12C U31G U47A
[out] 0.000155

[in] Please report the measured self-cleavage kobs at 160 uM GlcN6P for C50G A53U
[out] 0.00155

[in] Please report the measured self-cleavage kobs at 160 uM GlcN6P for G32U U47A
[out] 5.78e-05

[in] Please report the measured self-cleavage kobs at 160 uM GlcN6P for U54C U56A
[out] 0.000584

[in] Please report the measured self-cleavage kobs at 160 uM GlcN6P for U47C A64G
[out] 0.000324

[in] Please report the measured self-cleavage kobs at 160 uM GlcN6P for G13U C50G
[out] 8.07e-05
